# key: entry, value: pIC50
Molecular target: CDK2/CyclinA (Homo sapiens, UniProt P24941)
Assay: Kinase assay determining CDK2/CyclinA activity
Conditions: read-out: CDK2 (activity range)
Protocol: Kinase Assays Determining CDK2/CyclinA and CDK5/p35 Activity: Kinase assays were performed as described by the manufacturers recommendations (Proqinase for CDK2/CyclinA and Upsate for CDK5/p35).
pIC50: −log10 of the molar value.

Nc1cccc(-c2cc(NCCc3ccncc3)ncn2)c1; 5.00 to 6.00
CC(C)(C)C(=O)Nc1ccc(Nc2cc(-c3ccccc3F)ncn2)cc1; 3.60 to 5.00
CN1CCC(Nc2cc(Nc3ccc(NC(=O)C(C)(C)C)cc3)ncn2)CC1; 3.60 to 5.00
COc1ccccc1-c1cc(Nc2ccc(C(N)=O)cc2)ncn1; 6.00 to 9.00
COc1ccccc1-c1cc(Nc2ccc(NC(=O)CCN)cc2)ncn1; 5.00 to 6.00

**Q:** Return reported pIC50; argument: COc1ccccc1-c1cc(Nc2ccc(NC(=O)c3ccccc3N)cc2)ncn1
**A:** 5.00 to 6.00

**Q:** Look up pIC50 for this compound: Nc1ccc(C(=O)Nc2ccc(Nc3cc(-c4ccncc4)ncn3)cc2)cc1
**A:** 3.60 to 5.00

**Q:** Would you kindly share the measured pIC50 for Cc1ccc(Nc2cc(-c3cccc(NS(C)(=O)=O)c3)ncn2)cc1NS(C)(=O)=O ?
**A:** 6.00 to 9.00

**Q:** For the compound CC[C@H](C)[C@H](N)C(=O)Nc1ccc(Nc2cc(-c3ccccc3OC)ncn2)cc1 , what pIC50 is on record?
**A:** 5.00 to 6.00

**Q:** # pIC50 lookup, item COc1ccccc1-c1cc(Nc2ccc(NC(=O)c3ccc4ccccc4c3O)cc2)ncn1
**A:** 5.00 to 6.00

###

Target: T1, CDK9/Cyclin T1 (Homo sapiens, UniProt P50750)
T1 construct: made in house; host or cells: HEK293 cells, recombinant adenovirus
T1 sequence (P50750 whole entry): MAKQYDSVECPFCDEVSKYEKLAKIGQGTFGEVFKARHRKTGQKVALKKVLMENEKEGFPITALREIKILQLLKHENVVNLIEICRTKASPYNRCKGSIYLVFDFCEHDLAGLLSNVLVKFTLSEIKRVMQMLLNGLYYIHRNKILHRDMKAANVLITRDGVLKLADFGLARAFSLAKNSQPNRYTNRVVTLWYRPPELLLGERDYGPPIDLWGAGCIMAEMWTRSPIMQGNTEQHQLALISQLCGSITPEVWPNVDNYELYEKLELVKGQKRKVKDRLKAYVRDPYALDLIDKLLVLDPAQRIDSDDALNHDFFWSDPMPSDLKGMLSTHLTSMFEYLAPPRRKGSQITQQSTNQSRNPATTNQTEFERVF
T1 sequence (O60563 whole entry partner): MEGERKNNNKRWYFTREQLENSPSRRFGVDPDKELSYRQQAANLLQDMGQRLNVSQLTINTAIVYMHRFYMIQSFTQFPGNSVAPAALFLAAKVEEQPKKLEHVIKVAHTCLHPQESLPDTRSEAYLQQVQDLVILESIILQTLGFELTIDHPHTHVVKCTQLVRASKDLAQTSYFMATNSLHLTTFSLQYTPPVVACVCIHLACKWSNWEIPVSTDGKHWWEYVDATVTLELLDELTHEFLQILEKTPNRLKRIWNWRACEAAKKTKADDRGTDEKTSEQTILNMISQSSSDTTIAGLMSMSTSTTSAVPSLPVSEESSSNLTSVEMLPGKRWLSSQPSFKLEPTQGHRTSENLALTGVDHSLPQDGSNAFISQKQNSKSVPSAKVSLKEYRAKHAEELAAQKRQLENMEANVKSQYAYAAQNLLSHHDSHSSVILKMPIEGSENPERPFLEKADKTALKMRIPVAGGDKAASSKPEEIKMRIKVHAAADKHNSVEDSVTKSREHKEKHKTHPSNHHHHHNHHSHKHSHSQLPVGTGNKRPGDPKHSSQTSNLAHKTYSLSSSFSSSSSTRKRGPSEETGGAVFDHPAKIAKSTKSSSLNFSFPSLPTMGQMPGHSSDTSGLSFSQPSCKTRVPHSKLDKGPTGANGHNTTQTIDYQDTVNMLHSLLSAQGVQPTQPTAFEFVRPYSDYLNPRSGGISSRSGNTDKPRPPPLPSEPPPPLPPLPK
Assay: Kinase assay using CDK9/Cyclin T1
Assay type: biochemical
Settings: read-out: CDK9 (activity range)
Text: Cloning of CDK9 and Cyclin T1: Both cDNA fragments were cloned by PCR into pDONR201 vectors using the gateway recombination system (Invitrogen) according to the manufacturer's recommendations. The fragments were subcloned into a gateway-adapted shuttle vector (pPM7) for production of recombinant adenovirus. All plasmids were verified by restriction digests and sequencing analysis. Expression and Purification of CDK9/Cyclin T1 Proteins: […]
Measured IC50, listed per entry for reference.

COc1ccccc1-c1cc(Nc2ccc(C(=O)Nc3ccc(N4CCOCC4)cc3)cc2)ncn1; 0.001 to 1 µM
Cc1ccc(Nc2cc(-c3cccc(CO)c3)ncn2)cc1NS(C)(=O)=O; 1 to 10 µM
O=C(Nc1ccc(Nc2cc(-c3ccccc3OC(F)(F)F)ncn2)cc1)[C@@H]1CCCCN1; 1 to 10 µM
COc1ccccc1-c1cc(Nc2ccc(C(N)=O)cc2)ncn1; 0.001 to 1 µM

**Q:** Data request, read-out IC50, for COc1ccc(-c2ncnc(Nc3ccc(NC(=O)c4ccc(N)cc4)cc3)c2C)cc1
**A:** 10 to 250 µM

###

Molecular target: CDK9/Cyclin T1 (Homo sapiens, UniProt P50750)
Assay: Kinase assay using CDK9/Cyclin T1
Conditions: read-out: CDK9 (activity range)
pIC50: −log10 of the molar value.
value type: pIC50

Known pIC50 results, listed for orientation:
COc1ccccc1-c1cc(Nc2ccc(NC(=O)NC3CCCCC3)cc2)ncn1; 6.00 to 9.00
COc1ccccc1-c1cc(Nc2ccc(C(=O)NC3CCCNC3)cc2)ncn1 (stereo not shown); 6.00 to 9.00
COc1ccccc1-c1cc(Nc2ccc(C(=O)N3CCOCC3)cc2)ncn1; 5.00 to 6.00
COc1ccccc1-c1cc(Nc2ccc(NC(=O)[C@@H]3Cc4ccccc4CN3)cc2)ncn1; 6.00 to 9.00
COc1ccccc1-c1cc(Nc2cccc(C(N)=O)c2)ncn1; 6.00 to 9.00

**Q:** State the recorded pIC50 for this entry: CCCN(c1ccc(Nc2cc(-c3ccccc3OC)ncn2)cc1)S(=O)(=O)c1ccc(C)cc1
**A:** 5.00 to 6.00

**Q:** # get_value(readout='pIC50', item= CN[C@H](C(=O)Nc1ccc(Nc2cc(-c3ccccc3OC)ncn2)cc1)c1ccccc1 )
**A:** 6.00 to 9.00

**Q:** # pIC50 lookup, item Cc1ccc(Nc2cc(-c3cccc(C#N)c3)ncn2)cc1NS(C)(=O)=O
**A:** 5.00 to 6.00

**Q:** Requested read-out: pIC50. Entry: COc1ccccc1-c1cc(Nc2ccc(NC(=O)c3ccncc3)cc2)ncn1
**A:** 5.00 to 6.00

These entries and their values trace back to patent US8084457B2.
